Measured pIC50, listed per entry.
# Tested on: ABAE
# protocol.summary: Cytotoxicity against bovine ABAE cells
# Assay type: functional, cell-based, Bos taurus
pIC50: −log10 of the molar value.
measurement.label: pIC50

> print(dat)
                                   compound  assay.value
1  O=c1c2c(O)cccc2oc2ccc3c(c12)CC(C(O)(CO)CCl)O3 (configuration not stated) [PSOROXANTHIN CHLOROHYDRIN]         8.40
2  O=c1c2c(O)cccc2oc2ccc3c(c12)CC(C1(CO)CO1)O3 (configuration not stated)         6.99
